system: Vero E6; assay: cell viability relative to DMSO; higher = less toxic; conditions: 72 h; 10 nM
Assign cell viability to each entry below.
Numbers only, in %.

Past entries and their recorded results:
In: Name the recorded cell viability for CN1C(=O)C(N2CCCCC2)S/C1=C\C(=O)O (stereo not given) .
Out: 103

In: Name the recorded cell viability for "CCC[N+]12[C@H](O)[C@@H](CC)[C@@H]3C[C@H]1[C@@H]1N(C)c4ccccc4[C@]14C[C@H]2[C@@H]3[C@H]4O" .
Out: 99.4

In: Name the recorded cell viability for CCCCCCCCCCCCCCCC(=O)OC(CC(=O)[O-])C[N+](C)(C)C (stereo not given) .
Out: 104

In: Name the recorded cell viability for "Nc1ccc(/N=N/c2ccccc2)c(N)n1" .
Out: 88.6

In: Name the recorded cell viability for CC(=O)Oc1c(C)cc(OCC(O)CNC(C)C)c(C)c1C (stereo not given) .
Out: 107

In: Name the recorded cell viability for "OB1OCc2cc(Cl)ccc21" .
Out: 99.8

In: Name the recorded cell viability for "NC(=O)C[C@H](N)C(=O)O" .
Out: 112

In: Name the recorded cell viability for "CCOC(=O)Nc1cc2c(c(N)n1)N=C(c1ccccc1)[C@H](C)N2" .
Out: 20.2

In: Name the recorded cell viability for NCC(O)c1ccc(O)cc1 (stereo not given) .
Out: 96.6

Now for another entry.
In: Name the recorded cell viability for "c1ccc(-c2nc(CN3CCN(c4ncccn4)CC3)c[nH]2)cc1" .
Out: 97.5

====

system: U2OS; assay: drug sensitivity score (DSS) for viability; higher = more toxic; extreme values may be limits of the assay; details: 72 h
result_type: drug sensitivity score

In: Name the recorded drug sensitivity score for "CCc1cnc(N2CCC(c3nc(COc4ccc(-n5cnnn5)cc4)cs3)CC2)nc1" .
Out: 0

In: Name the recorded drug sensitivity score for "c1ccc(CCCCN2CCC(c3ccccc3)CC2)cc1" .
Out: 0

In: Name the recorded drug sensitivity score for "O=C(O)C(=O)c1cn(Cc2ccccc2)c2ccc(-c3ccc(OC(F)(F)F)cc3)cc12" .
Out: 0

In: Name the recorded drug sensitivity score for "COc1ccc(CN(C(=O)[C@@H](N)Cc2c(C)cc(C(N)=O)cc2C)[C@@H](C)c2ncc(-c3ccccc3)[nH]2)cc1C(=O)O" .
Out: 0

In: Name the recorded drug sensitivity score for "COc1cccc(OCCCN)c1-c1cc(Nc2cnc(C#N)cn2)n[nH]1" .
Out: 31.6

Hi there! I need drug sensitivity score for each item below, if you can.
1. CCN1CCN(Cc2ccc(Nc3ncc(F)c(-c4cc(F)c5nc(C)n(C(C)C)c5c4)n3)nc2)CC1
2. O=C(NNC(=O)c1ccc(CNS(=O)(=O)c2ccc(F)c(Cl)c2)cc1)c1ccccc1

Out:
7.6
0

Hi there! I need drug sensitivity score for each item below, if you can.
1. CCc1cc2c(cc1N1CCC(N3CCOCC3)CC1)C(C)(C)c1[nH]c3cc(C#N)ccc3c1C2=O
2. O=C(O)[C@H](O)c1ccccc1
3. C=CCN1CCc2cc(O)c(O)cc2[C@H](c2ccccc2)C1
4. CCCCOc1ccc(OCCCN2CCOCC2)cc1
5. CCCCCCCCCCCCCCCC(=O)OC(CC(=O)[O-])C[N+](C)(C)C (stereo not drawn)
6. Cc1ncc(-c2ccnc(Nc3ccc(S(C)(=O)=O)cc3)n2)n1C(C)C
7. c1ccc(-c2nc(CN3CCN(c4ncccn4)CC3)c[nH]2)cc1

Out:
1. 0
2. 0
3. 0
4. 0
5. 0
6. 4.8
7. 0
